Would you mind telling me the reported % Response of each entry?
target: rh-α5β1 (Homo sapiens, UniProt P05556+P08648); assay: Competition binding studies by Biolayer Interferometry (epitope groups); conditions: immobilized mAb A2-7A05; secondary mAb pre-mixed with 20 nM rh-α5β1; relative to antigen alone
Sequence (P08648 42-894 limits assumed): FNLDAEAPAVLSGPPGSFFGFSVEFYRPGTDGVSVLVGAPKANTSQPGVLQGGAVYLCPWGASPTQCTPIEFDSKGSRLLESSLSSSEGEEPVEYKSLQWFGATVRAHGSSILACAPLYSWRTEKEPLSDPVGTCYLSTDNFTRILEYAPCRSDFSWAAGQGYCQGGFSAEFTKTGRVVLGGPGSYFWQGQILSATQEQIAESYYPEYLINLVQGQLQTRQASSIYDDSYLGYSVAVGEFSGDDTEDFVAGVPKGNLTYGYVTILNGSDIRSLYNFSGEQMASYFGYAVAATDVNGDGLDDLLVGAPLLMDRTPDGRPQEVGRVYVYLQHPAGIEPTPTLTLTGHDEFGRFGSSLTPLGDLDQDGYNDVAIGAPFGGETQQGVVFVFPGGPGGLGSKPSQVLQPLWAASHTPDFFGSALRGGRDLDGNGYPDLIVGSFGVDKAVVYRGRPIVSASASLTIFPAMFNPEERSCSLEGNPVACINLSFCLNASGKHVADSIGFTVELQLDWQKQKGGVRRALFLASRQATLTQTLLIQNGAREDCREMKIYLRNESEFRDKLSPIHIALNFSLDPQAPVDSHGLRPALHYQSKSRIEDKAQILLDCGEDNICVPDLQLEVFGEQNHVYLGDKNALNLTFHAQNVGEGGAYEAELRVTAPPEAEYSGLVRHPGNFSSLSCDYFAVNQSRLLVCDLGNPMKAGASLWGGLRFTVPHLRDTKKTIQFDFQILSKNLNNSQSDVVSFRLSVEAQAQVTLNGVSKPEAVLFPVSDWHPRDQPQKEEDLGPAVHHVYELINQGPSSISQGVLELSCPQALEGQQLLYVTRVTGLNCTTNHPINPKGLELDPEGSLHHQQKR
Sequence (P08648 895-995 limits assumed): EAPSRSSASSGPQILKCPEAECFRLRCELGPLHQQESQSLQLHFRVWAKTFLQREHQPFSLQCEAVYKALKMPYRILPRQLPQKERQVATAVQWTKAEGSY
Sequence (P05556 21-728 limits assumed): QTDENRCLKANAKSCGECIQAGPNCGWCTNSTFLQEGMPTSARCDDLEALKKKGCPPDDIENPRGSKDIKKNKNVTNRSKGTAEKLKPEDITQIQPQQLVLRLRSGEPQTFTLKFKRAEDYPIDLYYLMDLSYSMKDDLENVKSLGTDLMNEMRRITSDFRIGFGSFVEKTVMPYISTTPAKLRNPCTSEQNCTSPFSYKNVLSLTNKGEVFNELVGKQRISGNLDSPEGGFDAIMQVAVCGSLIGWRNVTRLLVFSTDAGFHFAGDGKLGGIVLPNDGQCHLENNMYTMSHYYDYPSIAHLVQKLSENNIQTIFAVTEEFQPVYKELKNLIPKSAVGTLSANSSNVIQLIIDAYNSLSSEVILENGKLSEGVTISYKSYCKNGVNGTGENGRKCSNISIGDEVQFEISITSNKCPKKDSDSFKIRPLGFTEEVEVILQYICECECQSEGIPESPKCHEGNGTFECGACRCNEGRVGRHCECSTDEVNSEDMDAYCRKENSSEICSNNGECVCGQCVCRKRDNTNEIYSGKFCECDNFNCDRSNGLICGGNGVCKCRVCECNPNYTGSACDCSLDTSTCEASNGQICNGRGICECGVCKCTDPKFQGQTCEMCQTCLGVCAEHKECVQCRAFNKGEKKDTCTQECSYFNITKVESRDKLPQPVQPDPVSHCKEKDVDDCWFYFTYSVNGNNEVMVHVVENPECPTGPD
Answers are plain numbers, in %.

1. A2-7A05: anti-α5β1 antibody, VH SEQ ID NO:77, VL SEQ ID NO:78; tested as mouse hybridoma antibody and as human IgG4 chimera (antibody, V domains shown, A2-7A05 VH Sequence; A2-7A05 VL Sequence, tested as mouse hybridoma antibody and as human IgG4 chimera) VH: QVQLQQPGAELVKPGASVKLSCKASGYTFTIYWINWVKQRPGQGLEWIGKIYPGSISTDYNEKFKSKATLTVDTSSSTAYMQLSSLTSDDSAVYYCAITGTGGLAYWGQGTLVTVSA VL: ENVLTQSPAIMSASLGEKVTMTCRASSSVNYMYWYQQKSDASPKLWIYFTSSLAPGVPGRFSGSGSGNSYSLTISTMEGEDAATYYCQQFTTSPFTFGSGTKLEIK :: −451.35

Turning now to a further record.
I'd like to know its % Response. The molecule in question is A2-3B06: anti-α5β1 antibody, VH SEQ ID NO:42, VL SEQ ID NO:43 (antibody, V domains shown, A2-3B06 VH Sequence; A2-3B06 VL Sequence) VH: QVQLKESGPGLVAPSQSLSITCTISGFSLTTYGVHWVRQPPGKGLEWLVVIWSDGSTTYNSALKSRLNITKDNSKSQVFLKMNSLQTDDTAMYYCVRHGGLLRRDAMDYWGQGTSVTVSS VL: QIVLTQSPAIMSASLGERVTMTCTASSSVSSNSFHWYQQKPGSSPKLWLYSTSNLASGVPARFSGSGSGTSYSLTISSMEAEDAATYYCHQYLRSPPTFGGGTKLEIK 198.65
